Test system: Laodelphax striatellus
test: whole plant or invertebrate
Type: in vivo
conditions used: 192 h, rice seedlings dipped 30 seconds, 3rd-instar larvae, 8 days after inoculation, read-out: insecticidal efficacy (corrected mortality rate), activity level
metric name: mortality at 500 ppm
Please provide the amount together with its unit, number first.

The following molecules have reported results that may help.
| molecule | mortality at 500 ppm |
| --- | --- |
| CCS(=O)(=O)c1cc(-c2noc(C3(C(F)(F)F)CC3)n2)cnc1-c1nc2cc(C(F)(F)C(F)(F)F)nnc2n1C [Compound 1-2] | 100% |
| CCS(=O)(=O)c1cc(-c2noc(C3(C)CC3)n2)cnc1-c1nc2cc(C(F)(F)C(F)(F)F)nnc2n1C [Compound 1-4] | 100% |
| CCS(=O)(=O)c1cc(-c2noc(C3CC3C)n2)cnc1-c1nc2cc(C(F)(F)C(F)(F)F)nnc2n1C (stereo not shown) [Compound 1-1] | 100% |

[ask] // returns reported mortality at 500 ppm for input CCS(=O)(=O)c1cc(-c2noc(C3(c4ccccc4)CC3)n2)cnc1-c1nc2cc(C(F)(F)C(F)(F)F)nnc2n1C [Compound 1-3]
[reply] 100%

Where these numbers come from: patent US12516062B2
